system.tested: T1, human IL-17RA on HT1080 cells (human, UniProt Q96F46 33-866)
T1 sequence: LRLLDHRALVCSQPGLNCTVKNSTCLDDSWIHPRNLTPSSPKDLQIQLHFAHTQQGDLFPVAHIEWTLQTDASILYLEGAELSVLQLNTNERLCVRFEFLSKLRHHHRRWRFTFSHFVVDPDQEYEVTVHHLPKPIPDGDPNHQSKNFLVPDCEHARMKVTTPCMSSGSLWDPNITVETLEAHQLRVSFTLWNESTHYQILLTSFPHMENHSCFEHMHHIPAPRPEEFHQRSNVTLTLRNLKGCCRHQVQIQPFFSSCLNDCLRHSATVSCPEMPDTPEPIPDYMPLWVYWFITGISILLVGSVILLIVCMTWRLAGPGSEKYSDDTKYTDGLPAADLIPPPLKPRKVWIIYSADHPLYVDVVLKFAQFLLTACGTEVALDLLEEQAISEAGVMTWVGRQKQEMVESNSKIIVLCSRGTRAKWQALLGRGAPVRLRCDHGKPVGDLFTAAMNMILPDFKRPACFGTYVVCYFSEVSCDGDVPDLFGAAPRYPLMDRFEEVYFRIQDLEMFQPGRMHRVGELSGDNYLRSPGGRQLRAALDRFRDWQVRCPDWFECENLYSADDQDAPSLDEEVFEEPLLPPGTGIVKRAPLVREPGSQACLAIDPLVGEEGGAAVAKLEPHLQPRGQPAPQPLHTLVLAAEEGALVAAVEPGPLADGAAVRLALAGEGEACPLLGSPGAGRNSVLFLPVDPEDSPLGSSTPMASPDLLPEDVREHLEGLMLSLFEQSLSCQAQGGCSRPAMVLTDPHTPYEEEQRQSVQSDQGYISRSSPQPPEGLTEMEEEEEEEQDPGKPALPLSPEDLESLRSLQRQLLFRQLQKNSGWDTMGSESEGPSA
procedure.text: cell-based or functional assay
parameter.measured: Cell assay IC50 (nM)
Give bare numbers, in nM.

Solved entries:
INSERT INTO results (binder, meas_value) VALUES
  ('VH clone 2.1 (VHH, Human VH single domain antibody, no light chain; Parent clone of family 2; also called VH 2.1) VHH: QVQLVQSGAEVKKPGASVKVSCKASGYPFTSYDINWVRQATGQSLEWMGWMNPNSGDTVYAQKFQGRVTMTRNTSISTAYMELSSLRSEDTAVYFCARGRRDDWKNNYWGQGTLVTVSS', 280),
  ('VH clone 4.1 (VHH, Human VH single domain antibody, no light chain; Parent clone of family 4) VHH: QVQLVQSGAEVKKPGASVKVSCKASGYPFTNYDISWIRQATGQSLEWMGWMNPDSGNTGYAQKFQGRVTMTRNTSISTAYMELSGLRSEDTAVYFCARGGYNAWRTDYWGQGTLVTVSS', 282),
  ('VH clone 6.1 (VHH, Human VH single domain antibody, no light chain; Parent clone of family 6) VHH: EVQLVESGGGLVKPGGSLRLSCAASGFTFSDDYMSWLRQAPGKGLEWVSYISSSGSTIYYADSVKGRFTISRDNAKNSLYLQMNSLRAEDSAVYYCARKDITNIAVGSLGYWGQGTLVTVSS', 233),
  ('VH clone 7.1 (VHH, Human VH single domain antibody, no light chain; Parent clone of family 7) VHH: EVQLVESGGGLVQPGGSLRLSCAASGFTFSNYWMSWVRQARGKGLEWVANIRPDGSERYYVDSVKGRFTISRDNAKNSLYLQMSSLRAEDTAVYYCARSRDWGSRAFDIWGQGTMVTVSS', 1840),
  ('VH clone 5.1 (VHH, Human VH single domain antibody, no light chain; Parent clone of family 5) VHH: EVQLVESGGGLVKPGGSLRLSCEASGFTFSDFDMSWIRQAPGKGLEWVAYISSSDSTIYYRDSVKGRFTISRDNAKNSLYLQMNSLRAEDTAVYYCSRNGARYNWNYGDFQHWGQGTLVTVSS', 73);

In the following, a different binder is considered.
Problem: Recorded Cell assay IC50 of VH clone 1.1 (VHH, Human VH single domain antibody, no light chain; Parent clone of family 1; also called VH 1.1) VHH: QVQLVESGGGLVQPGRSLRLSCAASGFTFDDYAMHWVRQAPGKGLEWVSGISWNSGRMDYADSVKGRFTISRDNAKKSLYLQMNSLRAEDTAMYYCAKEKGLGFCRGGSCSYFDYRGQGTLVTVSS , please.
Result: 4.7
